A short record of Ki observed with Interleukin-1 receptor-associated kinase 4 (Homo sapiens, UniProt Q9NWZ3) follows.
Sequence (Q9NWZ3 whole entry): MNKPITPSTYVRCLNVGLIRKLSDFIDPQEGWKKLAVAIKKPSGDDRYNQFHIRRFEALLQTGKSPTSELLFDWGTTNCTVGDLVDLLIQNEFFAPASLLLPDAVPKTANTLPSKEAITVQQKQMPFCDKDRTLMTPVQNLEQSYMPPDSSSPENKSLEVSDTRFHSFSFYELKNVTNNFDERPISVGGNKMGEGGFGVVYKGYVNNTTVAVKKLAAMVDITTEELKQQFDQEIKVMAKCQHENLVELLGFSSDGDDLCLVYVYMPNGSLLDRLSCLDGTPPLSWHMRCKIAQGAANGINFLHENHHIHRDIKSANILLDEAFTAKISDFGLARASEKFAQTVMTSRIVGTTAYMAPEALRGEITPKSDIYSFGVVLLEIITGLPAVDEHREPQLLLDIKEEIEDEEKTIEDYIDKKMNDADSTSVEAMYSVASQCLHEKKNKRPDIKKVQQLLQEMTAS

Here's what some known entries look like.
Oc1cc([C@H]2C3CCC(CC3)[C@@H]2Nc2nc(-c3c[nH]c4ncc(F)cc34)ncc2F)on1 (mixture of isomers) ... > 4 µM
Fc1cnc2[nH]cc(-c3ncc(F)c(N[C@H]4C5CCC(CC5)[C@@H]4c4nnn[nH]4)n3)c2c1 (mixture of isomers) ... > 4 µM
CC(O)[C@H]1C2CCC(CC2)[C@@H]1Nc1nc(-c2c[nH]c3ncc(F)cc23)ncc1F (mixture of isomers) ... 3.3 µM

Now, please, on to the next compound.
Q: For O=P(O)(O)[C@H]1C2CCC(CC2)[C@@H]1Nc1nc(-c2c[nH]c3ncc(F)cc23)ncc1F (mixture of isomers) , write its Ki.
A: > 4 µM
